Molecular target: FLT3 (Homo sapiens)
Sequence (P36888 27-993): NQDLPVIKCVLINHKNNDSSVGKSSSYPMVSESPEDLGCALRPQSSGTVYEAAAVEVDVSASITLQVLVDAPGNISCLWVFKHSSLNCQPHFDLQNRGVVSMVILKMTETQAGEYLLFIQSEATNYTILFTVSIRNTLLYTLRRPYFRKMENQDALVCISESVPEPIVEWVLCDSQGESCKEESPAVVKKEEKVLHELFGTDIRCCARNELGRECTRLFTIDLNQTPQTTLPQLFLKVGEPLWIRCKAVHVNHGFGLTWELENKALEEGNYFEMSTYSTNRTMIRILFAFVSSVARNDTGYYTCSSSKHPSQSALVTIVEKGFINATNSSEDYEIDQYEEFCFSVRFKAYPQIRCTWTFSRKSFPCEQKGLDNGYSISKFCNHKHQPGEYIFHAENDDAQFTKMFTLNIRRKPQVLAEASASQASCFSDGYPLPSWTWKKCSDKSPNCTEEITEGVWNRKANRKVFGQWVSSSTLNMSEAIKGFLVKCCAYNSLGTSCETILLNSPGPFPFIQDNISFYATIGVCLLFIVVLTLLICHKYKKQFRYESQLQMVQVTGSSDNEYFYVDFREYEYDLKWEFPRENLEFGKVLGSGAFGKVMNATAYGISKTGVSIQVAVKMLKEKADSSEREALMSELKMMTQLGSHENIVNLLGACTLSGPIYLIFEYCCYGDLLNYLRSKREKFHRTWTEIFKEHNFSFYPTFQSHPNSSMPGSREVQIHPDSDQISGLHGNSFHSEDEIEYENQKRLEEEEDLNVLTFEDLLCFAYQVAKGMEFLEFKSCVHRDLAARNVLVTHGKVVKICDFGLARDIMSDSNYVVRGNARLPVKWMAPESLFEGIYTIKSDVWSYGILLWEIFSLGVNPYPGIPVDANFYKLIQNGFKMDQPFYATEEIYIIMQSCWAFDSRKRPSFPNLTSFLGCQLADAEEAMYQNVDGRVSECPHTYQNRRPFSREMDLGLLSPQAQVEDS
Quantity: IC50

Challenge: Give measured IC50 for CC(C)NC(=O)[C@H]1CC[C@@H](n2/c(=N/C(=O)c3cc(F)cc(F)c3)[nH]c3ccc(CN4CCC(C(C)(C)O)CC4)cc32)CC1 [I-b] (FLT3 (Homo sapiens)).
Response given: 1 to 100 nM
